Answer each item with its documented log10(Ki).
target: delta opioid receptor (Rattus norvegicus, UniProt P33533); construct: the forebrains were homogenized in Tris buffer in a Teflon®-glass homogenizer; from tissue; host or cells: forebrain of male Wistar rats, particulate (membrane) preparation; assay: Rat brain delta opioid receptor binding assay; details: δ-binding (Naltrindole ligand) Ki, rat forebrain, [3H]naltrindole ligand
Sequence (P33533 whole entry): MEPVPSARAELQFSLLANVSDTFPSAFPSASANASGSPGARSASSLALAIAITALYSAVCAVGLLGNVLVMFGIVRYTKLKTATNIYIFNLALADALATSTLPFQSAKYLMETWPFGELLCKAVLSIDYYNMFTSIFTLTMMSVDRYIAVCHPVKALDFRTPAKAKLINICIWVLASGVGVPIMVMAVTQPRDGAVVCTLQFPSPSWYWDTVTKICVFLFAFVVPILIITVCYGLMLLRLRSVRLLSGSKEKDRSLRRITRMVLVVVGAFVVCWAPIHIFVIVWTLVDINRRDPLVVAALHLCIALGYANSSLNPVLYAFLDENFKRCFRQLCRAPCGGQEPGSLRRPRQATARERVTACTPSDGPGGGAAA
# values: log10(Ki), units nM

Q. Which measured log10(Ki) value corresponds to COc1ccc(Oc2nc(-c3ccc(F)c(F)c3)ncc2NC[C@@H]2CCCN2)cc1 [Cpd 56] ?
A. 1.18

Q. Report log10(Ki) for COc1ccc(Oc2nc(-c3cnc(N4CCOCC4)nc3)ncc2NC[C@@H]2CCCN2)cc1 [Cpd 83] please.
A. 1.15

Q. Name the reported log10(Ki) value associated with the compound COc1ccc(Oc2nc(-c3ccc(NC(C)=O)cc3)ncc2NC[C@@H]2CCCN2)cc1 [Cpd 43]
A. 0.60

Q. Quick check: log10(Ki) of COc1ccc(Oc2nc(-c3cncc(C#N)c3)ncc2NCC2CNCCO2)cc1 (centres unmarked) [Cpd 275] ?
A. 1.66

Q. Fill in the blank: the reported log10(Ki) of COc1ccc(Oc2nc(-c3ccc(OC)nc3)ncc2NC[C@@H]2CCCN2)cc1 [Cpd 22] is ____.
A. -0.04

----------
target: delta opioid receptor (Rattus norvegicus, UniProt P33533); construct: the forebrains were homogenized in Tris buffer in a Teflon®-glass homogenizer; from tissue; host or cells: forebrain of male Wistar rats, particulate (membrane) preparation; assay: Rat brain delta opioid receptor binding assay; conditions: δ-binding (Naltrindole ligand) Ki, rat forebrain, [3H]naltrindole ligand
Exercise: state measured Ki for each of the compounds provided.
Give just the number in nM; leave the unit off.

Q. Which Ki reading was recorded for the compound `COc1ccc(Oc2nc(-c3ccc(OC)c(F)c3)ncc2NC[C@@H]2CCCN2)cc1` ?
A. 8

Q. Name the recorded Ki for `COc1ccc(Oc2nc(-c3cncc(C#N)c3)ncc2NC[C@H]2CCCC[C@@H]2N)cc1` .
A. 23

Q. Item under review: `COc1ccc(Oc2nc(-c3cncnc3)ncc2NC[C@@H]2CC(F)(F)CN2)cc1` . Reported Ki?
A. 95

Q. Which value of Ki has been reported for `COc1ccc(Oc2nc(-c3cccc(C(N)=O)c3)ncc2NC[C@@H]2CCCN2)cc1` in the records?
A. 3

Q. What value of measured Ki is listed for `CCCOc1ccc(Oc2nc(-c3cncc(C#N)c3)ncc2NC[C@@H]2CCCN2)cc1` ?
A. 45

Q. // Ki lookup, key: Oc1ccc(Oc2nc(-c3ccc(O)nc3)ncc2NCC2CCCN2)cc1 (stereo not drawn)
A. 36

Q. Need Ki, item `COc1ccc(Oc2nc(-c3cccc(NC(C)=O)c3)ncc2NC[C@@H]2CCCN2)cc1`
A. 16

Q. Value lookup for Ki; key = `COc1ccc(Oc2nc(-c3cncc(C#N)c3)ncc2NC[C@H](C)N)cc1`
A. 2

Q. Which Ki value belongs to `NC(=O)c1ccc(Oc2nc(-c3cccnc3)ncc2NC[C@@H]2CCCN2)cc1` ?
A. 18

Q. Fill in the blank: the reported Ki of `CCOc1ccc(Oc2nc(-c3cncc(C#N)c3)ncc2NC[C@@H]2CCCN2)cc1` is ____.
A. 8

Q. What does the data say about its Ki? Entry: `COc1ccc(Oc2nc(-c3cccc(C(F)(F)F)c3)ncc2NC[C@@H]2CCCN2)cc1`
A. 55

Q. Looking for the measured Ki of `COc1ccc(Oc2nc(-c3cncc(SC)c3)ncc2NC[C@@H]2CCCN2)cc1` , can you help?
A. 1

Q. Given the entry `CCCCOc1ccc(Oc2nc(-c3cncc(C#N)c3)ncc2NC[C@@H]2CCCN2)cc1` , report its measured Ki.
A. 78

Q. Ki lookup needed for `COc1cccc(Oc2nc(-c3cccnc3)ncc2NC[C@@H]2CCCN2)c1` , thanks.
A. 33

Q. Requested field: Ki. Item: `CCOc1ccc(Oc2nc(-c3cncnc3)ncc2NC[C@@H]2CCCN2)cc1`
A. 3

Q. Form field: reported Ki of `COc1ccc(Oc2nc(-c3nc4ccccc4s3)ncc2NC[C@@H]2CCCN2)cc1`
A. 6

Q. Ki for `COc1ccc(Oc2nc(-c3cc(C)cc(C)c3)ncc2NC[C@@H]2CCCN2)cc1` ?
A. 35

Q. Entry under review: `COc1ccc(Oc2nc(-c3ccc(O)nc3)ncc2NC[C@@H]2CCCN2)cc1` . Reported Ki?
A. 26

Q. # input compound: `COc1ccc(Oc2nc(-c3ccccc3)ncc2NC[C@@H]2CCCN2)cc1` ; wanted: its Ki
A. 33

Q. # input compound: `COc1ccc(Oc2nc(-c3cnc(N(C)C)nc3)ncc2NC[C@@H]2CCCN2)cc1` ; wanted: its Ki
A. 28

Q. Name the reported Ki value associated with the compound `CCOc1ncc(-c2ncc(NC[C@@H]3CCCN3)c(Oc3ccc(OC)cc3)n2)cn1`
A. 14

Q. Sample `COc1ccccc1Oc1nc(-c2cccnc2)ncc1NC[C@@H]1CCCN1` — what was its Ki?
A. 93

Q. Entry `COc1ccc(Oc2nc(-c3cncnc3)ncc2NC[C@@H]2CCCN2)c(F)c1F` : reported Ki = ?
A. 11

Q. # query: Ki of entry `COc1ccc(Oc2nc(-c3cc(F)cc(F)c3)ncc2NC[C@@H]2CCCN2)cc1`
A. 21

Q. Given the entry `COc1c(F)cc(Oc2nc(-c3cncc(C#N)c3)ncc2NC[C@@H]2CCCN2)cc1F` , report its measured Ki.
A. 35

Q. Returns the measured Ki for the input compound. Input: `COc1ccc(Oc2nc(-c3ccc4nonc4c3)ncc2NC[C@@H]2CCCN2)cc1`
A. 75

Q. Requested read-out: Ki. Entry: `N#Cc1cncc(-c2ncc(NC[C@@H]3CCCN3)c(Oc3ccc4ncsc4c3)n2)c1`
A. 2

Q. I would be grateful if you could share the reported Ki for `COc1ccc(Oc2nc(-c3ccc4[nH]ccc4c3)ncc2NC[C@@H]2CCCN2)cc1` .
A. 15

Q. Entry `COc1ccc(Oc2nc(-c3cnc(OC)nc3)ncc2NC[C@@H]2CCCN2)cc1` has what Ki?
A. 0.2

Q. Given the compound `CCOc1ccc(Oc2nc(-c3cncc(F)c3)ncc2NC[C@@H]2CCCN2)cc1` , what is its reported Ki?
A. 6

Q. Quick one: Ki for `COc1ccc(Oc2nc(-c3ccoc3)ncc2NC[C@@H]2CCCN2)cc1` ?
A. 34

Q. // Ki lookup, key: `COc1ccc(Oc2nc(-c3cncc(F)c3)ncc2NC[C@@H]2CCCN2)cc1`
A. 0.33

Q. // returns reported Ki for input `COc1ccc(Oc2nc(-c3cnc4ccccc4c3)ncc2NC[C@@H]2CCCN2)cc1`
A. 4.93

Q. Given the compound `COc1ccc(Oc2nc(-c3cccnc3OC)ncc2NC[C@@H]2CCCN2)cc1` , what is its reported Ki?
A. 8

Q. Need Ki of `COc1ccc(Oc2nc(-c3cccnc3)ncc2NC[C@@H]2CCCN2)cc1` , thanks.
A. 6.19

Q. What value of measured Ki is listed for `COc1ccc(Oc2nc(-c3cncc(F)c3)ncc2NC[C@@H]2CCCN2)c(F)c1F` ?
A. 3
